Provide the reported Fold gain scFv (hRAGE) of each item.
- Test target: T1, hRAGE-Fc (human, UniProt Q15109 23-342, biotin label in the selections and HTRF assays)
- T1 construct: extracellular domain; also called biotin labeled hRAGE-Fc; Biotin-labeled RAGE-Fc; not shown: Fc part
- T1 sequence (Q15109 23-342): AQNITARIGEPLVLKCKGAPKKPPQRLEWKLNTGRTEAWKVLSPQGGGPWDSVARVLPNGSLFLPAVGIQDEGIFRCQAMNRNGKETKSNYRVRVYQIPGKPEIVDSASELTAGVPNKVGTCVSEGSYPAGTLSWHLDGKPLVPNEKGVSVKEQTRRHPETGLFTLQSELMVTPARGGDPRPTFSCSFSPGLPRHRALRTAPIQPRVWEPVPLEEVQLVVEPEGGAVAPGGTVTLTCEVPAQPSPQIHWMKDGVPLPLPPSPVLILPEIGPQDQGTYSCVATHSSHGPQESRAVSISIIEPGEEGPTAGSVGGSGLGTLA
- Experimental details: IC50 of parental M4 scFv over IC50 of clone, HTRF competition
Numbers only, in fold.

| Binder | Fold gain scFv (hRAGE) / fold |
| --- | --- |
| S2R4A3_5A3 scFv (scFv) scFv: DIQMTQSPSSLSASVGDIVTITCRASQDVGIYVNWFQQKPGKAPRRLIYRATNLADGVPSRFSGSRSSTDFTLTISSLQPEDFATYYCLEFDEHPLTFGGGTKVEIKDGGGSGGGGSGGGGSSEVQLVESGGGLVQPGGSLRLSCAASGFTFNNYWMTWVRQAPGKGLEWVASIDNSGDNTYYPDSVKDRFTISRDNAKNSLYLKMNSLRAEDTAVYYCTRGGDITTGLDYWGQGTLVTVSS | 11 |
| S2R3A1_2E6 scFv (scFv, also called 2E6 (c)) scFv: DIQMTQSPSSLSASVGDRVTITCRASQDVGIYVNWFQQKPGKAPRRLIYRATNLADGVPSRFSGSRSGTDFTLTISSLQPEDFATYYCLEFDEHPLTFGGGTKVEIKDGGGSGGGGSGGGGNSEVQLVESGVGLVQPGGSLRLSCAASGFTFNNYWMTWVRQAPGKGLEWVASIDNSGDNTYYPDSVKDRFTISRDNAKNSLYLQMNSLRAEDTAVYYCARGGDITNGLDYWGQGTLVTVSS | 17.3 |
| S2R4A3_10H6 scFv (scFv, also called 10H6 (a)) scFv: DIQMTQSPSSLSASVGDGVTITCQASQDVGIYVNWFQQKPGKAPRRLIYRATNLADGVPSRFSGSRSGTDFTLTISSLQPEDFATYYCLEFDEHPLTFGGGTKVEIKNGGGSGGGGSGGGGSSEVQLVESGGGLVQPGGSLRLSCAASGFTFNNYWMTWVRQAPGKGLEWVASIDNSGDNTYYPDSVKDRFTISRDNAKNSLYLQMNSLRAEDTAVYYCARGGDITTGLDYWGQGTLVTESS | 110 |

Here is another binder to look at.
Exam item: Return Fold gain scFv (hRAGE) for the following binder: 6C3 scFv (scFv) scFv: DIQMTQSPSSLSASVGDRVTITCRASQDVGIYVNWFQQKPGKAPRRLIYRATNLADGVPSRFSGSRSGTDFTLTISSLQPEDFATYYCLEFDEHPLTFGGGTKVEIKDGGGSGGGGSGGGGSSEVQLVESGGGLVQPGGSLRLSCAASGFTFNNYWMTWVRQAPGKGLEWVASIDNSGDNTYYPDSVKDRFTISRDNAKNSLYLQMNSLRAEDTAVYYCARGGDITLGLDVWGQGTLVTVSS
Marked response: 21.5
